# measurement-target: T1, human TMEM106B (human, UniProt Q9NUM4 2-274)
# T1 construct: full-length, transiently expressed on HEK293 cells, or natively expressed on HeLa, U251 and A549 cells (the cell is named under assay); also the source of the Pepscan peptides; also called huTMEM106B; huTMEM
# protocol: FACS HeLa
# key: entry, value: MFI
Could you give me the number in MFI? Just the number is fine.

Study these solved cases before continuing.
{"binder": "TM-45 (antibody, V domains shown) VH: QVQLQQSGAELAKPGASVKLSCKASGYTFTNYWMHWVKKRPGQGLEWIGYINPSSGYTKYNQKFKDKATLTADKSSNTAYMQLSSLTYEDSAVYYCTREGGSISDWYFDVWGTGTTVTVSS VL: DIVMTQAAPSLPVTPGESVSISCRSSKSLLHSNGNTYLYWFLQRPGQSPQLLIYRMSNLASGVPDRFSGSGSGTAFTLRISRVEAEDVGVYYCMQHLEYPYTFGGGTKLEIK", "measurement-label": "MFI", "reported-measurement": 191}
{"binder": "TM-15 (antibody, V domains shown, mouse IgG (hybridoma)) VH: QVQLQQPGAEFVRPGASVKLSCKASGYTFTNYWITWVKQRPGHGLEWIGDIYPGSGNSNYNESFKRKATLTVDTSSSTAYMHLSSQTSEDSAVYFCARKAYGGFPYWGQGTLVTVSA VL: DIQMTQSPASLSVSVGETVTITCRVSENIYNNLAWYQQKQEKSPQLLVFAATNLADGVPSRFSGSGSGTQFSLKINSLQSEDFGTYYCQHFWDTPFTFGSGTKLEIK", "measurement-label": "MFI", "reported-measurement": 660}
{"binder": "TM-26 (antibody, V domains shown) VH: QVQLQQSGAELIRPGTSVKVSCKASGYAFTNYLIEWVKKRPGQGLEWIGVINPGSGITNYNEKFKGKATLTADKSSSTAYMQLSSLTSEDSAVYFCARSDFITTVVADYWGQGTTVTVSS VL: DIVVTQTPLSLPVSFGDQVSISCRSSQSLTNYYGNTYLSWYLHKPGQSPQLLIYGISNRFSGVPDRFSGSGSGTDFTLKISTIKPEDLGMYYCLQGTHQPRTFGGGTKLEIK", "measurement-label": "MFI", "reported-measurement": 384}
{"binder": "TM-17 (antibody, V domains shown) VH: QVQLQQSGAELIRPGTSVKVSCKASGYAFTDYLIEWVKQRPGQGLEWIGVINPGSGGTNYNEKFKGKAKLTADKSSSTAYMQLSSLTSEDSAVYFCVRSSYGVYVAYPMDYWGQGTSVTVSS VL: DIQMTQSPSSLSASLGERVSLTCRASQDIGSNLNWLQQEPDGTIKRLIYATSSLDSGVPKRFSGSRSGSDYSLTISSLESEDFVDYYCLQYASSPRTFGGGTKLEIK", "measurement-label": "MFI", "reported-measurement": 437}

Field: next binder
Item: TM-6 (antibody, V domains shown, mouse IgG (hybridoma)) VH: QVQLQQSGAELVKPGASVKLSCKASGYTFTEYTIHWVKQRSGQGLEWIGWFYPGSTYIDYNEKFKDKATLTADKSSSTVYLELSRLTSEDSAVYFCARHEEDYSNWFPFWGQGTLVTVSA VL: DIQMSQSSSYLSVSLGGRVTITCKASDHINNWLAWYQQKPGNAPRLLISGATSLETGVPSRFSGSGSGKDYTLSITSLQTEDVATYYCQQYWSSPYTFGGGTKLEIK | MFI: 520
